METHOD DESCRIPTION: Toxicokinetic evaluation of 14-day repeated intragastric administration to SD rats
Assay type: in vivo
TEST CONTEXT: both sexes, SD, rat, plasma, po, 30 mg/kg, repeated intragastric 30 mg/kg, Day 1, read-out: Apparent volume of distribution Vz/F

- COMPOUND STRUCTURE STRING: "Cc1ccc(F)c([C@H](C)Nc2nc(=O)n(C3CCOCC3)c(=O)[nH]2)c1"
  UNITS TEXT: "L/kg"
  Vd/F: 2.26

----------
METHOD DESCRIPTION: Toxicokinetic evaluation of 14-day repeated intragastric administration to SD rats
Format: in vivo
TEST CONTEXT: both sexes, SD, rat, plasma, po, 0.5 mg/kg, repeated intragastric 0.5 mg/kg, Day 7, read-out: Half-life T1/2 (converted)
EXPERIMENTAL READOUT: half-life at 7 day (h)

- COMPOUND: "CC(C)n1c(=O)cc(N[C@@H](C)c2ccccc2)[nH]c1=O [MYK-461, reference compound]"
  ASSAY RESULT: 14.7
